Entry source: patent US20240409617A1

# Target desc: B.1.1.7 Spike (SARS-CoV2)
Entries annotated with measured Response

Look at this binder and give its reported Response. Ab_14 scFv-Fc (scFv, V domains shown) VH: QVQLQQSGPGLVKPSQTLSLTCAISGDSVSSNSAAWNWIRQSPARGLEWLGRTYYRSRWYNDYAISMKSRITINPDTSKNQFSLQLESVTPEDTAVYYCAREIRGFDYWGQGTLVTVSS VL: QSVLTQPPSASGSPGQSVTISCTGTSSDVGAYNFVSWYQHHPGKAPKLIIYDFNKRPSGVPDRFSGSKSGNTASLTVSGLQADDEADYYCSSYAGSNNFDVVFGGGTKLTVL 0.355

Look at this binder and give its reported Response. Ab_26 scFv-Fc (scFv, V domains shown) VH: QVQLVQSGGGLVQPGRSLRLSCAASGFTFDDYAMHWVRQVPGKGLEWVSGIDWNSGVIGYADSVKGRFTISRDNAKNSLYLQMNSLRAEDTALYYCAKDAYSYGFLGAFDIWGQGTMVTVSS VL: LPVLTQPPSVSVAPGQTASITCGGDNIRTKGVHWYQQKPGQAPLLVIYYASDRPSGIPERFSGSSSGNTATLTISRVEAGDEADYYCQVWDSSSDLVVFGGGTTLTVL 0.336

Look at this binder and give its reported Response. Ab_18 scFv-Fc (scFv, V domains shown) VH: EVQLVQSGGGVVQPGRSLRVSCAASGFSFSRYGMHWVRQAPGKGLEWVAFIRHDGSKKYYADSVEGRFTISRDNSRNTVSLEMNSLRGEDTAVYYCAKDGRLEAALDDWGQGTLVTVSS VL: NFMLTQPHSMSGSAGKTVTVSCIRSSGSIANNFVQWYQQRPGSAPTTVIYEDNQRPSGVPDRFSGSIDSSSNSASLTISGLKTEDEADYYCQSYDSSNLVFGGGTRLTVL 0.256

Look at this binder and give its reported Response. S1-R3-T1-C4 (Ab_8) scFv-Fc (scFv, V domains shown) VH: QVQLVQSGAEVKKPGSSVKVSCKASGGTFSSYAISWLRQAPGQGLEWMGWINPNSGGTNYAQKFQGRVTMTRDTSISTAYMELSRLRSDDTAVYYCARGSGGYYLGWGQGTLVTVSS VL: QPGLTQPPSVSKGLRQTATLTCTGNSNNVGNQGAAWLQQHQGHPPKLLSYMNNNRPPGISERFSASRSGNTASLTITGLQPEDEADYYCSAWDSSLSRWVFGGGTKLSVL 0.202

Look at this binder and give its reported Response. Ab_16 scFv-Fc (scFv, V domains shown) VH: QVQLVQSGGGVVQPGRSLRLSCAASGFTFSNYGMHWVRQAPGKGLEWVALIWERGSKKDYADSVKGRFTVSRDNSKNTLYLQMNSLRPEDTAVYFCAREGISMTGAEYFQHWGQGTLVTVSS VL: QSVLTQPPSVSGSPGQRVTMSCTGSSSNIGAGYDVHWYQQVPGAAPRLLIYGTNNRPSGVPDRFSGSKSGTSASLTITGLQAEDEADYYCQSYDNSLTDPYVFGTGTKVTVL 0.388
